Recorded values, source patent US10028999B2.

# METHOD_NOTES: in vivo
# ASSAY_CONDITIONS: ip, 2 micromolar, in 100 ul
Peptide text beside a SMILES is read from it. * marks the point of attachment. Tos = Cc1ccc(S(=O)(=O)*)cc1; CH2Cl = ClC*
# level at time molar per record follows

Completed entries (count: 3):
MOLECULE	level at time molar
Cc1ccc(S(=O)(=O)N[C@@H](CC(=O)O)C(=O)N2CCC[C@H]2C(=O)N[C@@H](CCCNC(=N)N)C(=O)CCl)cc1 [3AA, tosyl-DPR-CK] (Tos-Asp-Pro-Arg-CH2Cl)	~1000 nM
Cc1ccc(S(=O)(=O)N[C@@H](CC(N)=O)C(=O)N[C@@H](C)C(=O)N[C@H](C(=O)N[C@@H](CC(C)C)C(=O)N[C@@H](CC(=O)O)C(=O)N2CCC[C@H]2C(=O)N[C@@H](CCCNC(=N)N)C(=O)CCl)[C@@H](C)O)cc1 [7AA, tosyl-NATLDPR-CK] (Tos-NATLDPR-CH2Cl)	~10 nM
Cc1ccc(S(=O)(=O)N[C@H](C(=O)N[C@@H](CC(C)C)C(=O)N[C@@H](CC(=O)O)C(=O)N2CCC[C@H]2C(=O)N[C@@H](CCCNC(=N)N)C(=O)CCl)[C@@H](C)O)cc1 [5AA, tosyl-TLDPR-CK] (Tos-TLDPR-CH2Cl)	< 10 nM

Moving on to the next molecule.
Ask: I'd like to know its level at time molar. The molecule in question is Cc1ccc(S(=O)(=O)N[C@@H](C)C(=O)N[C@H](C(=O)N[C@@H](CC(C)C)C(=O)N[C@@H](CC(=O)O)C(=O)N2CCC[C@H]2C(=O)N[C@@H](CCCNC(=N)N)C(=O)CCl)[C@@H](C)O)cc1 [6AA, tosyl-ATLDPR-CK] (Tos-ATLDPR-CH2Cl)
Result: < 10 nM
